Test system: SH-SY5Y
METHOD SUMMARY: Cell cycle arrest in SHSY5Y cells by accumulation at S phase after 4 hrs
Format: functional, Homo sapiens
PARAMETER: Activity (%)
Give bare numbers, in %.

>>> df
                                        smi  parameter  unit_descriptor  assay_value
0    COc1ccc(/C=C\c2cc(OC)c(OC)c(OC)c2)cc1O   Activity                %           49
1  COc1ccc(-c2c(-c3cc(OC)c(OC)c(OC)c3)coc2C=O)cc1   Activity                %           54
2  COc1ccc(-c2coc(C=O)c2-c2cc(OC)c(OC)c(OC)c2)cc1   Activity                %           54

Returns the measured Activity for the input compound. Input: COc1ccc(-c2cocc2-c2cc(OC)c(OC)c(OC)c2)cc1O
53

###

Kindly state Activity for each of the entries shown.
System: SH-SY5Y
METHOD SUMMARY: Cell cycle arrest in SHSY5Y cells by accumulation at G2 phase after 12 hrs
Assay type: functional, Homo sapiens
One number for each entry, in %.

The examples below pair each entry with its known result.
>>> print(df.to_string())
                                        smi  tested_target  parameter  unit_descriptor  assay_value
0  COc1ccc(-c2coc(C=O)c2-c2cc(OC)c(OC)c(OC)c2)cc1        SH-SY5Y   Activity                %           55
1  COc1ccc(-c2cocc2-c2cc(OC)c(OC)c(OC)c2)cc1O        SH-SY5Y   Activity                %           38
2  COc1ccc(-c2c(-c3cc(OC)c(OC)c(OC)c3)coc2C=O)cc1        SH-SY5Y   Activity                %           82

Below: the item to evaluate.
Returns the measured Activity for the input compound. Input: COc1ccc(/C=C\c2cc(OC)c(OC)c(OC)c2)cc1O
52

###

Tested on: SH-SY5Y
METHOD SUMMARY: Cytotoxicity against SHSY5Y cell line by MTT assay
Assay type: functional, cell-based
CONDITION SUMMARY: Homo sapiens
PARAMETER: IC50

The examples below pair each entry with its known result.
In [3]: df
Out[3]:
                                        smi  assay_value
0  COc1ccc(-c2cocc2-c2cc(OC)c(OC)c(OC)c2)cc1[N+](=O)[O-]       245 nM
1  COc1ccc(-c2c(-c3cc(OC)c(OC)c(OC)c3)coc2C=O)cc1       231 nM

Below: the item to evaluate.
Returns the measured IC50 for the input compound. Input: COc1ccc(-c2cocc2-c2cc(OC)c(OC)c(OC)c2)cc1
39 nM

###

Test system: SH-SY5Y
METHOD SUMMARY: Cell cycle arrest in SHSY5Y cells by accumulation at S phase after 12 hrs
Type: functional, Homo sapiens
Kindly state Activity for each of the entries shown.
Write your answer as a measured quantity: the number, then the unit.

>>> print(df.to_string())
                                   compound  tested_target  assay_value
0  COc1ccc(/C=C\c2cc(OC)c(OC)c(OC)c2)cc1O [COMBRETASTATIN A4]        SH-SY5Y          83%
1  COc1ccc(-c2cocc2-c2cc(OC)c(OC)c(OC)c2)cc1O        SH-SY5Y          43%
2  COc1ccc(-c2c(-c3cc(OC)c(OC)c(OC)c3)coc2C=O)cc1        SH-SY5Y          79%

Returns the measured Activity for the input compound. Input: COc1ccc(-c2coc(C=O)c2-c2cc(OC)c(OC)c(OC)c2)cc1
39%
